Value source: patent US20090143319

target: NF-kB p65 (RelA) (UniProt Q04206); assay: competition; settings: unit not given
Sequence (Q04206 whole entry): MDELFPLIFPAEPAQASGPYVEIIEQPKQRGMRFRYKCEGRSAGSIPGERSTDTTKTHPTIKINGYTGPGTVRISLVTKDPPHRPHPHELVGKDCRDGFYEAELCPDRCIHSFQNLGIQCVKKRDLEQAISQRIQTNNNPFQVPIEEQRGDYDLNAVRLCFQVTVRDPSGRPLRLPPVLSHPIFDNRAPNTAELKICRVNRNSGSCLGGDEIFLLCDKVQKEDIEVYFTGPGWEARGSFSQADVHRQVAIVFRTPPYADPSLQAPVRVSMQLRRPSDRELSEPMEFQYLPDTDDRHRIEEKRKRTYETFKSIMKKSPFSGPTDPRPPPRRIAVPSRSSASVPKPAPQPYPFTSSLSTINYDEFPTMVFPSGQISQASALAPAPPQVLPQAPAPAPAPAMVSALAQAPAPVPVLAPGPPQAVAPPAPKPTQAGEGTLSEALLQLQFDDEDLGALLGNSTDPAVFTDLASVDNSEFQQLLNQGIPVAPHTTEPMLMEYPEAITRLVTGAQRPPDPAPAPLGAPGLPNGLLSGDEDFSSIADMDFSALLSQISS
measured_quantity: IC50
Form: value (number only, do not type unit).

Lab note: measured IC50 of CCTTGAGGGGATTTCCCCCC (double strand) [SEQ-I] was 0.384

Lab note: measured IC50 of AGCTGGGGATTTCCCCTTTG (double strand) [SEQ-F] was 3.4

Lab note: measured IC50 of AGTTGAGGGGATTTCCCCGC (double strand) [SEQ-H] was 1.08

Lab note: measured IC50 of AGTATCGGGGATTTCCCCTTAAC (double strand) [SEQ-E] was 1.91

Lab note: measured IC50 of ACCAGGGGATTTCCCCGTCCCAC (double strand) [SEQ-G] was 1.71
